System: RXF 393
protocol_notes: NCI tumour cell line growth inhibition, 48 h
The source made the active and inactive calls. Rule as the data show it: active = GI50 up to about 1.1 µM and inactive = higher.
property_measured: GI50

{"compound": "CN(C)CCCNC(=O)c1c(O)c2ccccc2[nH]c1=O", "measurement": "95.7 µM (inactive)"}
{"compound": "O=c1[nH]n(CCc2ccccc2CCl)c2ccc([N+](=O)[O-])cc12", "measurement": "92.3 µM (inactive)"}
{"compound": "COc1ccc2c(c1)CC[C@@H]1C2CC[C@]2(C)C(=C=CP(=O)(O)O)CCC12 (stereo not given in full)", "measurement": "> 100 µM (inactive)"}
{"compound": "COC(=O)C(Cc1c(-c2[nH]c3ccccc3c2CC(NC(C)=O)C(=O)OC)[nH]c2ccccc12)NC(C)=O (stereo not given)", "measurement": "> 100 µM (inactive)"}

As a next step, examine the compound that follows.
Provide the reported GI50 (system: RXF 393) for O=c1[nH]nc(Cc2ccccc2)n1/N=C/c1ccco1
24 µM (inactive)

Where do the numbers come from? From ChEMBL document CHEMBL1201862.
